- tested-on: purified recombinant human PDE5 (Homo sapiens)
- protocol-notes: in vitro PDE5 inhibition assay measuring GMP production from cGMP (HPLC-UV-MS)
- Format: biochemical
- details: 1 nM PDE5 catalytic domain, 0.3 μM cGMP, 25 °C, 15 min; mean of at least three replicates ± SEM; read-out: IC50
- Method: STRENDA guidelines were considered in the description of the following enzyme activity assays. […] The amount of GMP produced was measured by HPLC-UV-MS as described in the general procedures. Reaction mixture components were separated with a ramp gradient of solvent A and B run at a flow rate of 0.5 mL/min as follows: 0–4 minutes 0% B, 4–7 minutes 0–95% B, 7–8 minutes 95% B, 8–11.1 minutes 0% B. GMP was measured using selected reaction monitoring in positive mode for a centroid center mass of 152. […]
readout-type: IC50 (nM)

a = COc1ccc(-c2oc3c(CC=C(C)C)c(O)cc(O)c3c(=O)c2OCCCO)cc1 [Compound 7, 3-O-(3-Hydroxypropyl)-Icaritin]
b = COc1ccc(-c2oc3c(CC=C(C)C)c(O)cc(O)c3c(=O)c2OCC(C)O)cc1 (centres unmarked) [Compound 8, 3-O-(2-Hydroxypropyl)-Icaritin]
Request: Exercise: compare a and b ; which one has the greater IC50? Your answer should be the label attached to the chosen record.
Result: b

Numbers sourced from paper PMC6754136.
